experiment: inhibitors of TNFa-induced NFkB p65 translocation, primary screen, imaging, HUVEC, MLSMR starter and 10KST1 sets (AID 438); details: HUVEC TNFa-induced p65 nuclear translocation; at 2 µM, hits give high values, 0% TNFa-plus-vehicle, 100% no-TNFa wells;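 also: compound added about 3h40 before a 20 min TNFalpha stimulation; signal is the nuclear over cytoplasmic p65 intensity ratio per well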
Active and inactive are the calls of the source.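 The calls were made as follows: active = inhibition above 20% together with a positive visual image hit; inconclusive = visual image hit but inhibition not above 20%; inactive = no visual image hit.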
endpoint.label: inhibition

Requested field: inhibition. Item: `Cn1cnc2c1c(=O)[nH]c(=O)n2C`
-10.8% (inactive)

Ok, now `CC(C)OC(=O)c1sc2nc3c(cc2c1N)C(=O)CCC3`
-8% (inactive)

Ok, now `O=C(c1nsnc1-c1ccccc1O)N1CCCCC1`
-8% (inactive)

Ok, now `COc1cccc2c1C(=O)c1c(O)c3c(c(O)c1C2=O)C[C@@](O)(C(=O)CO)C[C@@H]3O[C@H]1C[C@H](N)[C@H](O)[C@H](C)O1`
-15.3% (inactive)

Ok, now Cc1ccccc1N1C(=O)C2ON(c3ccccc3)C(c3ccncc3)C2C1=O (centres undefined)
-2.8% (inactive)

Ok, now `CCCCn1c(-c2ccc(Cl)cc2)nc2c(=O)n(C)c(=O)[nH]c21`
-18.9% (inactive)

Ok, now CCN(CC)CCN1C(=O)C(=O)/C(=C(/O)c2c(C)[nH]c(C(=O)OC)c2C)C1c1ccco1 (centres undefined)
-11.8% (inactive)

Ok, now Cc1ccc(N2C(=O)[C@@H]3[C@H](C2=O)C2CCCN2[C@@H]3C(=O)c2ccccc2)cc1 (some centres undefined)
-6.6% (inactive)

Ok, now CN1CCN2c3ccccc3Cc3ccccc3C2C1 (centres undefined)
1.5% (inactive)

Ok, now `COc1ccc(-c2cc(=O)[nH]c(=O)[nH]2)cc1`
-16% (inactive)

Ok, now `Nc1cccc(C(=O)O)c1`
3.8% (inactive)

Ok, now `CCc1cc2c(=O)c(-c3cscn3)coc2c(CN(C)C)c1O`
-8.2% (inactive)

Ok, now `Fc1cc(F)c(F)c(SCCc2ccncc2)c1F`
-0.9% (inactive)

Ok, now `Cc1onc(-c2ccccc2Cl)c1C(=O)N1CCN(c2nc3ccccc3s2)CC1`
-8.1% (inactive)

Ok, now O=C(C1=C(O)C(=O)N(c2ncccn2)C1c1cccc(Cl)c1)c1ccco1 (centres undefined)
-2.1% (inactive)

Ok, now `CC(=O)N/C(=N/c1nc(C)cc(C)n1)Nc1ccc(NC(C)=O)cc1`
3.8% (inactive)

Ok, now CC1(C)S[C@@H]2[C@H](NC(=O)C(C(=O)O)c3ccccc3)C(=O)N2[C@H]1C(=O)O (some centres undefined)
-12.5% (inactive)

Ok, now `CSc1nc(C)cc(OCCNS(=O)(=O)c2cc(C)ccc2C)n1`
-16% (inactive)

Ok, now `C[C@@H]1CCC[C@H](C)N1NC(=O)c1ccc(Cl)c(S(N)(=O)=O)c1`
7.2% (inactive)

* * *

Answer each item with its documented fluorescence slope.
biological target: Voltage-gated potassium channel subunit beta-2 (Rattus norvegicus); assay: KvBeta enzyme negative modulators, primary screen, biochemical, NADPH fluorescence (AID 622); details: recombinant KvBeta, 4-cyanobenzaldehyde reduction, at 10 µM, hits give high values;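 also: slope of raw intensity against log time taken from 70 to 1610 s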
Please give only the number in your answer, with no unit.

Requested field: fluorescence slope. Item: `CCn1c(SCC(=O)O)nc2sc3c(c2c1=O)CCC3`
-0.405

Ok, now `CC(C)(C)OC(=O)N1CC=C2C(C#N)=C(N)C(C#N)(C#N)[C@H](c3cccnc3)[C@H]2C1`
-0.387

Ok, now `NC(=O)CSc1nc(N)c2c3c(sc2n1)CCCCC3`
-0.362

Ok, now `C[C@]12CC[C@@H]3c4ccc(O)cc4CC[C@H]3[C@@H]1CC[C@@H]2OC(=O)CCC(=O)O`
-0.519

Ok, now C=CCN(C(=O)CCC(=O)O)C1CC(=O)N(c2ccc(OCCC)cc2)C1=O (configuration not stated)
-0.384

Ok, now `CCn1c(-c2ccco2)n[nH]c1=S`
-0.542

Ok, now `CCOC(=O)c1c(C(F)(F)C(F)(F)C(F)(F)C(F)(F)F)n[nH]c1C`
-0.521

Ok, now `OCCN(CCO)c1nc(N2CCCCC2)c2nc(N(CCO)CCO)nc(N3CCCCC3)c2n1`
-0.056

Ok, now COc1ccc(OC)c(C2/C(=C(/O)c3cnn(-c4ccccc4)c3C)C(=O)C(=O)N2CCN(C)C)c1 (configuration not stated)
-0.47

Ok, now CCC1(C)Cc2ccccc2-c2nc(NCCO)n(-c3ccccc3)c(=O)c21 (configuration not stated)
-0.0137

Ok, now `OC[C@H]1O[C@@H](n2cnc3c(Nc4ccccc4)ncnc32)[C@H](O)[C@@H]1O`
-0.459

Ok, now `O=c1oc2cc(O)ccc2c2oc3cc(O)ccc3c12`
-0.398

Ok, now CN(C)CC(O)COc1ccc(-c2ccc(C#N)cc2)cc1 (configuration not stated)
-0.371

Ok, now `c1ccc(Cc2nn[nH]n2)cc1`
-0.426

Ok, now `COC(=O)c1ccc(C(=O)OC)c(NC(=O)c2cc3ccccc3o2)c1`
-0.377

Ok, now `CN(C(=O)C(Cl)Cl)c1ccc(OC(=O)c2ccco2)cc1`
-0.508

Ok, now `CC1(C)Cc2c(C#N)c(NCCc3ccccc3)nc(-c3ccco3)c2CO1`
-0.122

Ok, now `c1ccc(OCc2nn3c(-c4ccco4)nnc3s2)cc1`
-0.417

Ok, now `Cc1cc(Cn2ccnc2)c(C)cc1Cn1ccnc1`
-0.463

Ok, now CCOC(=O)c1[nH]c2cc3c(cc2c1NC(=O)CN1CCCCC1C)OCO3 (configuration not stated)
-0.229

Ok, now N#CC1=C2SCC(O)(c3ccccc3)N2C(=O)CC1c1ccccc1 (configuration not stated)
-0.459

Ok, now CCN(CC)CCN1C(=O)C(=O)/C(=C(/O)c2ccc(F)cc2)C1c1cccnc1 (configuration not stated)
-0.493
